Molecular target: T1, cynomolgus transferrin receptor (TfR) ectodomain (ECD) (cynomolgus, UniProt Q5RDH6 121-760 (Pongo abelii entry), biotinylated where captured on streptavidin)
T1 construct: also called cyno TfR; cynoTfR; not shown: C-terminal cleavable His- and Avi-tags
T1 chain: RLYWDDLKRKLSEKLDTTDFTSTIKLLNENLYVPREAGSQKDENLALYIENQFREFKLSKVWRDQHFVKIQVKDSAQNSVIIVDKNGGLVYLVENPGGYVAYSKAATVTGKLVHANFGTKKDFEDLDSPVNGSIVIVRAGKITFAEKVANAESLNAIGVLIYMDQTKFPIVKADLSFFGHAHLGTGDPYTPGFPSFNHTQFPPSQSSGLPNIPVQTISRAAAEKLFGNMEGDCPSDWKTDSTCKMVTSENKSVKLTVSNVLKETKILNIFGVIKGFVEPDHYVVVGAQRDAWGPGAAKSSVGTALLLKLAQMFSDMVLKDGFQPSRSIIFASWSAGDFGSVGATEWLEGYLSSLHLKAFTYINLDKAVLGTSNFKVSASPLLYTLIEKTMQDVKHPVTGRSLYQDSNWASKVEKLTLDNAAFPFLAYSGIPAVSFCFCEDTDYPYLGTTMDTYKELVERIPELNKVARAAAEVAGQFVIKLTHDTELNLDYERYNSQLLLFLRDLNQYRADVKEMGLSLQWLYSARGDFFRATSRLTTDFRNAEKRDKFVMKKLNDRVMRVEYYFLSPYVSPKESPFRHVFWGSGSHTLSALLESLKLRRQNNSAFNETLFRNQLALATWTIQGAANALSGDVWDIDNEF
Experiment: yeast surface display flow cytometry; yeast-displayed clone stained with 250 nM biotinylated cyno TfR, neutravidin-AF647; median fluorescence intensity

BINDER	binding result
3.4-1 (designed binder, also called CH3C.3.4-1) modified Fc polypeptide displayed on yeast (c-Myc tagged): PCPAPELLGGPSVFLFPPKPKDTLMISRTPEVTCVVVDVSHEDPEVKFNWYVDGVEVHNAKTKPREEQYNSTYRVVSVLTVLHQDWLNGKEYKCKVSNKALPAPIEKTISKAKGQPREPQVYTLPPSRDELTKNQVSLTCLVKGFYPSDIAVEWESWGFVWSTYKTTPPVLDSDGSFFLYSKLTVPKSNWQQGFVFSCSVMHEALHNHYTQKSLSLSPGK	binds
CH3C.35 (designed binder) modified Fc polypeptide displayed on yeast (c-Myc tagged): PCPAPELLGGPSVFLFPPKPKDTLMISRTPEVTCVVVDVSHEDPEVKFNWYVDGVEVHNAKTKPREEQYNSTYRVVSVLTVLHQDWLNGKEYKCKVSNKALPAPIEKTISKAKGQPREPQVYTLPPSRDELTKNQVSLTCLVKGFYPSDIAVEWESYGTEWSSYKTTPPVLDSDGSFFLYSKLTVTKSEWQQGFVFSCSVMHEALHNHYTQKSLSLSPGK	binds
3.4-26 (designed binder, also called CH3C.3.4-26) modified Fc polypeptide displayed on yeast (c-Myc tagged): PCPAPELLGGPSVFLFPPKPKDTLMISRTPEVTCVVVDVSHEDPEVKFNWYVDGVEVHNAKTKPREEQYNSTYRVVSVLTVLHQDWLNGKEYKCKVSNKALPAPIEKTISKAKGQPREPQVYTLPPSRDELTKNQVSLTCLVKGFYPSDIAVEWESWGTVWGTYKTTPPVLDSDGSFFLYSKLTVPKSNWQQGYVFSCSVMHEALHNHYTQKSLSLSPGK	binds

Where do these numbers come from? They come from patent US20240024432A1.
